target: Dual specificity protein phosphatase 3 (Homo sapiens) (UniProt P51452); assay: human DUSP3 enzyme inhibition – biochemical, fluorescence, OMFP substrate, selectivity assay for LMPTP inhibitor project, dose response (AID 686961); details: recombinant VHR-1 enzyme, OMFP fluorogenic substrate, 50 min
Sequence (P51452 whole entry, looked up): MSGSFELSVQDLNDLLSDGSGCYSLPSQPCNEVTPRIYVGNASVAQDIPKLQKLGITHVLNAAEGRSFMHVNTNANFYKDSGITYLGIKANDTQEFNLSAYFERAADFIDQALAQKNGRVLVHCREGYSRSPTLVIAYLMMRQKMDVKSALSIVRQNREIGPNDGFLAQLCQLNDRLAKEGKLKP
The source made the active and inactive calls.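 Rule for the calls: active = IC50 at or below 20 µM; inactive = the rest.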
measured.quantity: IC50

>  <compound>
CC(=O)Nc1ccc(S(=O)(=O)N2CCN(c3nc(NC4CCCC4)c4ccccc4n3)CC2)cc1

>  <IC50>
12.1 µM

$$$$
>  <compound>
Cc1nc(N)nc(N)c1-c1ccc([N+](=O)[O-])cc1

>  <IC50>
> 80 µM (inactive)

$$$$
>  <compound>
COc1ccccc1CNc1nc(NCc2ccc(NC(C)=O)cc2)c2sccc2n1

>  <IC50>
5.64 µM

$$$$
>  <compound>
CCc1nc(N)nc(N)c1-c1ccc(Cl)c(N=[N+]=[N-])c1

>  <IC50>
inactive

$$$$

Request: Report IC50 from Dual specificity protein phosphatase 3 (Homo sapiens) (UniProt P51452) testing of Cc1cc2oc(=O)cc(-c3cc4ccccc4o3)c2cc1O
Response: 2.9 µM

Request: Report IC50 from Dual specificity protein phosphatase 3 (Homo sapiens) (UniProt P51452) testing of CNc1nc(NC)c2cn[nH]c2n1
Response: > 80 µM (inactive)

Request: Report IC50 from Dual specificity protein phosphatase 3 (Homo sapiens) (UniProt P51452) testing of CC(=O)Nc1ccc(CNc2nc(NCc3cccs3)nc3ccsc23)cc1
Response: 9.27 µM

====

target: UniProt P51452; test: human DUSP3 enzyme inhibition – biochemical, fluorescence, OMFP substrate, selectivity assay for LMPTP inhibitor project, dose response (AID 686961); settings: recombinant VHR-1 enzyme, OMFP fluorogenic substrate, 50 min
Calls of active or inactive are those of the source.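 How the source made its calls: active means IC50 at or below 20 µM; inactive means the rest.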
I would appreciate it if you answered using one of these outcomes: active, inactive

Answered cases to consult:
>  <compound>
CCc1nc(N)nc(N)c1-c1ccc(Cl)cc1

>  <label.value>
inactive

$$$$
>  <compound>
O=C(NNC(=O)c1cc2cc3ccccc3nc2s1)c1cccc(Cl)c1

>  <label.value>
active

$$$$
>  <compound>
C/C(=N\NC(=O)c1ccc(OC2OCCOC2Oc2ccc(C(=O)N/N=C(\C)c3ccncc3)cc2)cc1)c1ccncc1 (stereo not given)

>  <label.value>
active

$$$$
>  <compound>
CCOC(=O)Cn1c(=NC(=O)c2sc3ccccc3c2Cl)sc2cc(S(N)(=O)=O)ccc21

>  <label.value>
active

$$$$

Please look at the following compound next.
Request: Kindly provide the recorded test outcome for the following compound: COc1ccc(-c2ccc(/C=N/NC(=O)c3cccnc3)o2)c([N+](=O)[O-])c1
Response: active

====

biological target: Dual specificity protein phosphatase 3 (Homo sapiens) (UniProt P51452); experiment: human DUSP3 enzyme inhibition – biochemical, fluorescence, OMFP substrate, selectivity assay for LMPTP inhibitor project, dose response (AID 686961); settings: recombinant VHR-1 enzyme, OMFP fluorogenic substrate, 50 min
Calls of active or inactive are those of the source.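 Rule for the calls: active = IC50 at or below 20 µM; inactive = the rest.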
I would appreciate it if you answered using one of these outcomes: active, inactive

Request: Kindly provide the recorded test outcome for the following molecule: CCOC(=O)C1=C(C)N=c2sc(=Cc3ccc(OCC(=O)O)cc3)c(=O)n2C1c1ccc(Cl)cc1 (stereo not drawn)
Response: active

Request: Kindly provide the recorded test outcome for the following molecule: O=C(CCCOc1ccc(Cl)cc1Cl)NNC(=O)c1ccc(NC(=O)c2ccccc2)cc1
Response: active

Request: Kindly provide the recorded test outcome for the following molecule: COc1ccccc1CNc1nc(NCc2cnc(C)cn2)c2sccc2n1
Response: inactive

====

biological target: Dual specificity protein phosphatase 3 (Homo sapiens); test: human DUSP3 enzyme inhibition – biochemical, fluorescence, OMFP substrate, selectivity assay for LMPTP inhibitor project, dose response (AID 686961); conditions: recombinant VHR-1 enzyme, OMFP fluorogenic substrate, 50 min
Calls of active or inactive are those of the source.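 Rule for the calls: active = IC50 at or below 20 µM; inactive = the rest.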
I would appreciate it if you answered using one of these outcomes: active, inactive

>  <molecule>
Cc1[nH]ccc(=O)c1Cc1c(Cl)cccc1Cl

>  <system.tested>
Dual specificity protein phosphatase 3 (Homo sapiens)

>  <label.value>
inactive

$$$$
>  <molecule>
N=c1c(C(=O)NCc2ccc3c(c2)OCO3)cc2c(=O)n3ccccc3nc2n1Cc1cccnc1

>  <system.tested>
Dual specificity protein phosphatase 3 (Homo sapiens)

>  <label.value>
active

$$$$
>  <molecule>
Cc1ccc(-c2nc(NCc3cccnc3)c3ccccc3n2)cc1

>  <system.tested>
Dual specificity protein phosphatase 3 (Homo sapiens)

>  <label.value>
inactive

$$$$
>  <molecule>
O=C(N/N=C/c1ccc(Br)s1)c1cccc([N+](=O)[O-])c1

>  <system.tested>
Dual specificity protein phosphatase 3 (Homo sapiens)

>  <label.value>
active

$$$$
>  <molecule>
COc1cccc(CNc2nc(NCC3CC3)nc3ccsc23)c1OC

>  <system.tested>
Dual specificity protein phosphatase 3 (Homo sapiens)

>  <label.value>
active

$$$$

Request: Kindly provide the recorded test outcome for the following molecule: COCCNc1nc(NCc2cccc(OC)c2OC)c2sccc2n1
Response: inactive

Request: Kindly provide the recorded test outcome for the following molecule: CCCCC(=O)Nc1ccc(C(=O)NNC(=O)c2ccc(C)c(Br)c2)cc1
Response: active

Request: Kindly provide the recorded test outcome for the following molecule: O=C(N/N=C/c1ccc(OC(=O)c2cccs2)cc1)c1cccc(F)c1
Response: active

====

target: Dual specificity protein phosphatase 3 (Homo sapiens) (UniProt P51452); experiment: human DUSP3 enzyme inhibition – biochemical, fluorescence, OMFP substrate, selectivity assay for LMPTP inhibitor project, dose response (AID 686961); conditions: recombinant VHR-1 enzyme, OMFP fluorogenic substrate, 50 min
Active and inactive are the calls of the source.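 The calls were made as follows: active = IC50 at or below 20 µM; inactive = the rest.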
I would appreciate it if you answered using one of these outcomes: YES (active), NO (inactive)

Answered cases to consult:
>  <compound>
CN1/C(=C/C=C/c2n(C)c3cc([N+](=O)[O-])c([N+](=O)[O-])cc3[n+]2C)C(C)(C)c2ccccc21

>  <system.tested>
Dual specificity protein phosphatase 3 (Homo sapiens) (UniProt P51452)

>  <label.value>
NO

$$$$
>  <compound>
CCOC(=O)C1=C(C)N=c2sc(=Cc3ccc(OCC(=O)O)cc3)c(=O)n2C1c1ccc(SC)cc1 (stereo not given)

>  <system.tested>
Dual specificity protein phosphatase 3 (Homo sapiens) (UniProt P51452)

>  <label.value>
YES

$$$$
>  <compound>
CC(C)OCCCNc1nc(-c2ccccc2)nc2ccccc12

>  <system.tested>
Dual specificity protein phosphatase 3 (Homo sapiens) (UniProt P51452)

>  <label.value>
NO

$$$$
>  <compound>
COc1cccc2c1[C@@H]1CN(CCCCn3c(=O)[nH]c4c(sc5ncc(-c6ccccc6)nc54)c3=O)C[C@@H]1CO2

>  <system.tested>
Dual specificity protein phosphatase 3 (Homo sapiens) (UniProt P51452)

>  <label.value>
YES

$$$$

Request: Kindly provide the recorded test outcome for the following compound: O=c1cc(-c2cc3ccccc3o2)c2cc(O)ccc2o1
Response: YES

Request: Kindly provide the recorded test outcome for the following compound: CCOc1cc(/C=N/N=C2/NC(=O)C(CC(=O)O)S2)ccc1OCc1ccc(Cl)cc1Cl (stereo not given)
Response: YES

Request: Kindly provide the recorded test outcome for the following compound: CC(C)Oc1ccc(-c2nc(NCC3CCCO3)c3ccccc3n2)cc1 (stereo not given)
Response: NO

Request: Kindly provide the recorded test outcome for the following compound: O=C(Nc1ccc2oc(-c3ccccc3F)nc2c1)c1ccc([N+](=O)[O-])o1
Response: YES

====

target: Dual specificity protein phosphatase 3 (Homo sapiens) (UniProt P51452); test: human DUSP3 enzyme inhibition – biochemical, fluorescence, OMFP substrate, selectivity assay for LMPTP inhibitor project, dose response (AID 686961); conditions: recombinant VHR-1 enzyme, OMFP fluorogenic substrate, 50 min
Active and inactive are the calls of the source.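 How the source made its calls: active means IC50 at or below 20 µM; inactive means the rest.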
measured.quantity: IC50

Worked examples follow.
>  <compound>
Cc1c(CCC(=O)O)c(=O)oc2c(C)c(OCc3ccccc3Cl)ccc12

>  <IC50>
inactive

$$$$
>  <compound>
COc1ccc(Nc2nc(=O)c3cc([N+](=O)[O-])ccc3s2)cc1

>  <IC50>
3.92 µM

$$$$
>  <compound>
O=C(N/N=C\C=C\c1ccc(Br)cc1)c1ccc2c(c1)OCO2

>  <IC50>
1.63 µM

$$$$
>  <compound>
O=C(/C=C/c1ccccc1Cl)Nc1ccc2c(c1)C(=O)NC2=O

>  <IC50>
2.29 µM

$$$$
>  <compound>
CN(C)c1nc(N)nc(/C(C#N)=C/C2CC3C=CC2C3)n1 (stereo not drawn)

>  <IC50>
> 80 µM (inactive)

$$$$

Request: Quickly give me recorded IC50 for Nc1nc(N)c(Cc2ccc(Cl)cc2Cl)c(N)n1
Response: inactive

Request: Quickly give me recorded IC50 for NS(=O)(=O)c1ccc(CCNC(=O)c2ccc3nccnc3c2)cc1
Response: inactive

Request: Quickly give me recorded IC50 for Cc1ccc(-c2nc(NCCN3CCOCC3)c3ccccc3n2)cc1
Response: > 80 µM (inactive)
